# Method notes: Microsomal metabolic stability
# Condition: human liver microsomes, minus NADPH control, 45 min
Readings of Compound Remaining (% of 0 min), Control for the listed compounds

{"columns": ["Compound", "Compound Remaining (% of 0 min), Control"],
 "data": [
  ["Cl.NCC(c1ccc(OC(F)(F)F)cc1)c1ccc(OC(F)(F)F)cc1", "97.8 % of 0 min"],
  ["CC(C)(C)c1ccc(C(CN)c2ccc(OC(F)(F)F)cc2)cc1 (stereo not drawn)", "91.0 % of 0 min"],
  ["CC(C)(C)c1ccc(C(CN)c2ccc(Cl)cc2)cc1 (stereo not drawn)", "95.7 % of 0 min"]
]}

The measured Compound Remaining (% of 0 min), Control associated with "CC(C)(C)c1ccc(C(CN)c2ccc(C(C)(C)C)cc2)cc1.Cl" reads 88.0 % of 0 min

Query Cl.NCC(c1ccc(Cl)cc1)c1ccc(OC(F)(F)F)cc1 (stereo not drawn) yields Compound Remaining (% of 0 min), Control of 86.6 % of 0 min

The recorded Compound Remaining (% of 0 min), Control for CC(C)(C)c1ccc(C(CN)c2ccc(F)cc2)cc1.Cl (stereo not drawn) is 98.0 % of 0 min
